Target Desc: 5-hydroxytryptamine receptor 2C (Homo sapiens)
Sequence (P28335 whole entry): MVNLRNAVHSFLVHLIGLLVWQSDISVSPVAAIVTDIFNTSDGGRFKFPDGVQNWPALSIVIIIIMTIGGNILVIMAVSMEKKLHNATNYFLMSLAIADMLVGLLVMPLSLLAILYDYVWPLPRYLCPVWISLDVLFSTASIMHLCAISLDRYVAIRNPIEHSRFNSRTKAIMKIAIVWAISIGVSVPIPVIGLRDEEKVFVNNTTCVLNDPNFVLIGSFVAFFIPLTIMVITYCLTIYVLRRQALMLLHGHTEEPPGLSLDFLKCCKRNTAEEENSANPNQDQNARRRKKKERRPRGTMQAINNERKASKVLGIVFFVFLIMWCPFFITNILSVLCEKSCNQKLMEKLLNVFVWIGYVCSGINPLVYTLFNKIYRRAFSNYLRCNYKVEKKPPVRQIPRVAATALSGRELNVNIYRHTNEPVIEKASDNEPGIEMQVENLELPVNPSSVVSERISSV
Method Description: Displacement of [3H]5-HT from human recombinant 5-HT2C receptor expressed in mouse 3T3 cells
Quantity Kind: pKi
One number for each entry, as −log10 of the molar value.

**Q:** Consider the compound shown here: CNc1cc(NS(=O)(=O)c2ccc(N)cc2)cc(NC)n1 [Ro-63-0563] What is its recorded pKi?
**A:** 5.69
